Sourced from patent US11634417B2

Biological target: full-length SHP2 (Homo sapiens)
Construct: 1 nM full-length SHP2 (His6-tagged SHP2(2-527), recombinantly expressed in E. coli and purified in-house); His6
Sequence (Q06124 2-527): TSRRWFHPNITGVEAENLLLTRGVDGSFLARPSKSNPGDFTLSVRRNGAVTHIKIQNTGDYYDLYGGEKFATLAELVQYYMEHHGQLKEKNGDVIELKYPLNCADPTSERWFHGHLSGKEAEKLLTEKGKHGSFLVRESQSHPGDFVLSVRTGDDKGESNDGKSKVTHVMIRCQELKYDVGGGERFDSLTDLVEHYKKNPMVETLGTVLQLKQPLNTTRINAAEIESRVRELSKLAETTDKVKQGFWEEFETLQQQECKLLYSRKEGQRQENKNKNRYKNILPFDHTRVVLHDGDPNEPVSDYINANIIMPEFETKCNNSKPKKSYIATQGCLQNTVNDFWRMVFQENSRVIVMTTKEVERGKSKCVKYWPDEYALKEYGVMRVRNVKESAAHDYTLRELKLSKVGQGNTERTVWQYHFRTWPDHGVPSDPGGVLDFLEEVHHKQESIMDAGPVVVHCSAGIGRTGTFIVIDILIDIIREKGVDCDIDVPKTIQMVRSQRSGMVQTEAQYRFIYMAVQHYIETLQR
Experiment: SHP2 enzymatic assay (fluorescence intensity kinetic assay, DiFMUP hydrolysis)
Conditions: 1 nM His6-tagged SHP2(2-527), 1 μM activating peptide, 50 μM DiFMUP; single assay or mean of multiple assays; read-out: Biological Example 1 IC50
pIC50: −log10 of the molar value.
quantity: pIC50

Please review the entries below; each comes with its answer.
compound="N[C@@H]1c2ccccc2CC12CCN(c1ncc(-c3ccccc3)nn1)CC2 [Example 79]" reported_measurement=7.08
compound="Nc1nccc(Sc2cnc(N3CCC4(CC3)Cc3c(Cl)cccc3[C@H]4N)nn2)c1Cl [Example 35]" reported_measurement=7.59
compound="C[C@@H]1OCC2(CCN(c3ncc(Sc4ccc(N)nc4C(F)(F)F)nn3)CC2)[C@@H]1N [Example 56]" reported_measurement=5.86
compound="N[C@@H]1c2ccccc2CC12CCN(c1ncc(Sc3cnc4ccccn34)nn1)CC2 [Example 71]" reported_measurement=7.26
compound="CNc1nccc(Sc2cnc(N3CCC4(CC3)Cc3ncccc3[C@H]4N)nn2)c1Cl [Example 39]" reported_measurement=7.11

I. Cc1nccc(Sc2cnc(N3CCC4(CC3)Cc3ccccc3[C@H]4N)nn2)c1Cl [Example 54]
II. Cc1ccc2c(c1)CC1(CCN(c3ncc(Sc4ccnc(N)c4Cl)nn3)CC1)[C@H]2N [Example 59]
Identify the item whose pIC50 is the smaller number: I or II Could you answer with the label of the item you picked?
II

1. Cc1nc(N2CCC3(CC2)CO[C@@H](C)[C@H]3N)nnc1Sc1ccnc(N)c1Cl [Example 4]
2. C[C@@H]1OCC2(CCN(c3ncc(Sc4ccnc5[nH]ccc45)nn3)CC2)[C@@H]1N [Example 8]
3. Cc1nc2c(s1)[C@H](N)C1(CCN(c3ncc(Sc4ccnc(N)c4Cl)nn3)CC1)C2 [Example 57]
Arrange these 3 compounds in increasing order of pIC50. Response format: the labels, sorted as the prompt asks.
3, 1, 2
(3: 6.19, 1: 6.94, 2: 7.16)
